System: NOMO1
assay text: cell viability relative to DMSO control; higher = less cytotoxic
condition context: RPMI 5 mM glucose + 10% FBS; 48 h; 0.00234 µM
measurement name: cell viability (%)
Please state the figure in %; there is no need to write the unit.

Form: compound = `C[N]1C=NC=C1[C@@](N)(C2=CC=C(Cl)C=C2)C3=CC=C4N(C)C(=O)\C=C(\C5=CC=CC(=C5)Cl)C4=C3` ; cell viability = 95.6

# cell viability (compound: `NC(=O)c1ccc(-c2nc(-c3ccc4c(c3)OCCO4)c(-c3ccccn3)[nH]2)cc1` ) is 104

According to the records, this compound `COc1cc2nccc(Oc3ccc(NC(=O)Nc4ccc(F)cc4F)c(F)c3)c2cc1OC` displays cell viability of 95.8

###

System: P12-Ichikawa
assay text: cell viability relative to DMSO control; higher = less cytotoxic
condition context: HPLM + 10% dialyzed FBS; 48 h; 0.19 µM
measurement name: cell viability (%)
Give just the numeric value; % need not be written.

Below: 2 molecules and their reported cell viability.
mol | scale unit | cell viability
CNC(=O)[C@H](Cc1ccccc1)NC(=O)[C@H](CC(C)C)[C@H](CSc1cccs1)C(=O)NO | % | 95.1
C#CCN(C)[C@H](C)Cc1ccccc1 | % | 93

Now let's try a different one.
response.value for `C#Cc1cccc(Nc2ncnc3cc(OCCOC)c(OCCO)cc23)c1` (field: cell viability) = 113

###

System: NOMO1
assay text: cell viability relative to DMSO control; higher = less cytotoxic
condition context: HPLM + 10% dialyzed FBS; 48 h; 0.00234 µM
Examples of compounds with documented cell viability follow.
Supply the numeric figure in %, leaving out any unit text.

Take a look at these entries with their results.
compound | experimental system | scale unit | cell viability
C#Cc1cccc(Nc2ncnc3cc(OCCOC)c(OCCO)cc23)c1 | NOMO1 | % | 110
C[C@@H](c1ncncc1F)[C@](O)(Cn1cncn1)c1ccc(F)cc1F | NOMO1 | % | 121
C1Cc2[nH]nc(-c3nn[nH]n3)c2C1 | NOMO1 | % | 120
Cc1[nH]c(/C=C2\C(=O)Nc3ccc([S+](=O)([O-])N(C)c4cccc(Cl)c4)cc32)c(C)c1C(=O)N1CCN(C)CC1 | NOMO1 | % | 131
O=C(NC1CCNCC1)c1n[nH]cc1NC(=O)c1c(Cl)cccc1Cl | NOMO1 | % | 110
Cc1ccc(NC(=O)c2ccc(CN3CCN(C)CC3)cc2)cc1Nc1nccc(-c2cccnc2)n1 | NOMO1 | % | 105

cell viability recorded for this compound, `COc1cc(N2CCC(C(N)=O)CC2)ccc1Nc1nc(N)c(Cl)c(Nc2ccccc2[S+](=O)([O-])C(C)C)n1` , is 79.1

cell viability reading for `CN(C)CCOC(c1ccccc1)c1ccccc1` : 84

Briefly, cell viability measured for COCCOC(=O)C/1=C(C)/NC/2=C(C1C3=CC=CC(=C3)O)/C(=O)CC(C2)C4=C(OC)C=CC=C4 (stereo not given) : 105

// cell viability lookup, compound = `COc1cc(N2CCC(O)CC2)ccc1Nc1cc(Nc2ccccc2[S+](=O)([O-])C(C)C)c2cc[nH]c2n1` , result: 131

Kindly note the recorded cell viability for `COC(=O)N1CCN(Cc2cccc(NC(=O)Nc3ccc(C)nc3)c2F)CC1` , which is 111

Note to self: cell viability recorded for `Clc1cccc(-c2nnnn2Cc2cccnc2)c1Cl` was 92.7

The reported cell viability of the compound `C[C@]\1(CCS\C(=N1)N)C2=CC(=C(F)C=C2F)C3=CN=CN=C3` was 106

GET /value?item= `C[C@@H]1C[C@H]2[C@@H]3\C=C(C)/C4=C/C5=C(C[C@]4(C)[C@H]3[C@@H](O)C[C@]2(C)[C@@]1(O)C(=O)COC(C)=O)C=N[N]5C6=CC=CC=C6` &field=cell viability returns 123

Note to self: cell viability recorded for `COc1cc2c(Nc3ccc(NC(=O)c4ccccc4)cc3)ncnc2cc1OCCCN1CCOCC1` was 124
